These entries and their values trace back to the Human Domainome abundance scans (Beltran et al. 2025).

B1: SH3 and PX domain-containing protein 2B, residues 155 to 209; numbered along this chain, A1X283 (parent)
chain: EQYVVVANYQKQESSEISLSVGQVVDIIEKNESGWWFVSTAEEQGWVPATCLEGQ

Variants of: B1
Test: abundance fitness (aPCA) (normalised: wild type 0, dead -1); higher = more abundant; growth selection in yeast, the domain comes from the species named
Conditions: Homo sapiens
Each entry gets false (0) if its abundance fitness stays under -0.1, and true (1) if its abundance fitness is -0.1 or above.

[in] abundance fitness >= -0.1 for `Q2K` ?
[out] true (1)

[in] abundance fitness >= -0.1 for `S33G` ?
[out] true (1)

[in] abundance fitness >= -0.1 for `D26V` ?
[out] false (0)

[in] abundance fitness >= -0.1 for `Q23G` ?
[out] false (0)

[in] abundance fitness >= -0.1 for `N8W` ?
[out] false (0)

[in] abundance fitness >= -0.1 for `S14I` ?
[out] true (1)

[in] abundance fitness >= -0.1 for `W35V` ?
[out] false (0)

[in] abundance fitness >= -0.1 for `C51L` ?
[out] false (0)

[in] abundance fitness >= -0.1 for `W36K` ?
[out] false (0)

[in] abundance fitness >= -0.1 for `V38R` ?
[out] false (0)

[in] abundance fitness >= -0.1 for `S15L` ?
[out] false (0)

[in] abundance fitness >= -0.1 for `G45Q` ?
[out] false (0)

[in] abundance fitness >= -0.1 for `V4G` ?
[out] false (0)

[in] abundance fitness >= -0.1 for `G54Q` ?
[out] true (1)

[in] abundance fitness >= -0.1 for `Y9F` ?
[out] true (1)

[in] abundance fitness >= -0.1 for `Q44H` ?
[out] true (1)

[in] abundance fitness >= -0.1 for `V47L` ?
[out] false (0)

[in] abundance fitness >= -0.1 for `W46D` ?
[out] false (0)

[in] abundance fitness >= -0.1 for `E32K` ?
[out] false (0)

[in] abundance fitness >= -0.1 for `Y9W` ?
[out] true (1)

[in] abundance fitness >= -0.1 for `C51Q` ?
[out] false (0)

[in] abundance fitness >= -0.1 for `V4W` ?
[out] false (0)

[in] abundance fitness >= -0.1 for `Q55P` ?
[out] true (1)

[in] abundance fitness >= -0.1 for `Q12V` ?
[out] true (1)

[in] abundance fitness >= -0.1 for `E16M` ?
[out] false (0)

[in] abundance fitness >= -0.1 for `Y3C` ?
[out] false (0)

[in] abundance fitness >= -0.1 for `T50L` ?
[out] false (0)

[in] abundance fitness >= -0.1 for `G54Y` ?
[out] true (1)

[in] abundance fitness >= -0.1 for `L52H` ?
[out] false (0)

[in] abundance fitness >= -0.1 for `V47D` ?
[out] false (0)

[in] abundance fitness >= -0.1 for `T40A` ?
[out] false (0)

[in] abundance fitness >= -0.1 for `A7R` ?
[out] true (1)

[in] abundance fitness >= -0.1 for `S15P` ?
[out] false (0)

[in] abundance fitness >= -0.1 for `V21E` ?
[out] true (1)

[in] abundance fitness >= -0.1 for `P48E` ?
[out] false (0)

[in] abundance fitness >= -0.1 for `V38Y` ?
[out] false (0)

[in] abundance fitness >= -0.1 for `G45F` ?
[out] false (0)

[in] abundance fitness >= -0.1 for `I28N` ?
[out] false (0)

[in] abundance fitness >= -0.1 for `S15V` ?
[out] false (0)

[in] abundance fitness >= -0.1 for `V21Y` ?
[out] false (0)

[in] abundance fitness >= -0.1 for `Q2R` ?
[out] false (0)

[in] abundance fitness >= -0.1 for `W36D` ?
[out] false (0)

[in] abundance fitness >= -0.1 for `E32R` ?
[out] false (0)

[in] abundance fitness >= -0.1 for `V38T` ?
[out] false (0)

[in] abundance fitness >= -0.1 for `S14H` ?
[out] false (0)

[in] abundance fitness >= -0.1 for `A41N` ?
[out] false (0)

[in] abundance fitness >= -0.1 for `Q55W` ?
[out] false (0)

[in] abundance fitness >= -0.1 for `V25F` ?
[out] false (0)

[in] abundance fitness >= -0.1 for `Q10Y` ?
[out] false (0)

[in] abundance fitness >= -0.1 for `A49C` ?
[out] true (1)

[in] abundance fitness >= -0.1 for `V24M` ?
[out] false (0)

[in] abundance fitness >= -0.1 for `N31Y` ?
[out] false (0)

[in] abundance fitness >= -0.1 for `S20A` ?
[out] false (0)

[in] abundance fitness >= -0.1 for `K30V` ?
[out] false (0)

[in] abundance fitness >= -0.1 for `E53L` ?
[out] false (0)

[in] abundance fitness >= -0.1 for `S39N` ?
[out] true (1)

[in] abundance fitness >= -0.1 for `A41M` ?
[out] true (1)

[in] abundance fitness >= -0.1 for `E29W` ?
[out] true (1)

[in] abundance fitness >= -0.1 for `Q12G` ?
[out] false (0)

[in] abundance fitness >= -0.1 for `E13P` ?
[out] false (0)

[in] abundance fitness >= -0.1 for `G54I` ?
[out] true (1)

[in] abundance fitness >= -0.1 for `N31M` ?
[out] true (1)

[in] abundance fitness >= -0.1 for `W35Y` ?
[out] false (0)
